- Tested on: L1210
- experimentalDetails: Optimal dose for anti-tumor activity in vivo on L1210-infected mice
- Type: functional, Mus musculus
Catalogue of OD values
Answer format: value, then unit.

Here's what some known entries look like.
INSERT INTO measurements (mol, observedvalue) VALUES
  ('COc1ccc2nc3cc(Cl)ccc3c(NCCN3CCC(C4CCN(CC[n+]5ccc6ccc7c(c6c5)c5cc(OC)ccc5n7C)CC4)CC3)c2c1.CS(=O)(=O)[O-]', '15 mg/kg'),
  ('COc1ccc2c(c1)c1c3c[n+](CCN4CCC(C5CCN(CC[n+]6ccc7ccc8c(c7c6)c6cc(OC)ccc6n8C)CC5)CC4)ccc3ccc1n2C.CS(=O)(=O)[O-].CS(=O)(=O)[O-]', '2.5 mg/kg');

Here is the next item to consider.
The reported OD of the molecule `COc1ccc2[nH]c3ccc4cc[n+](CCN5CCC(CCCC6CCN(CC[n+]7ccc8ccc9[nH]c%10ccc(OC)cc%10c9c8c7)CC6)CC5)cc4c3c2c1.CS(=O)(=O)[O-].CS(=O)(=O)[O-]` was 5 mg/kg

###

- System: Nucleic Acid
- experimentalDetails: Binding affinity for DNA
- Assay type: nucleic-acid assay
// K app x10e-7 lookup, one value per entry
Respond with the bare value in M⁻¹.

INSERT INTO results (mol, assaytarget, observedvalue) VALUES
  ('COc1ccc2c(c1)c1c3c[n+](CCN4CCC(CCCC5CCN(CC[n+]6ccc7ccc8c(c7c6)c6cc(OC)ccc6n8C)CC5)CC4)ccc3ccc1n2C.CS(=O)(=O)[O-].CS(=O)(=O)[O-]', 'Nucleic Acid', 20),
  ('COc1ccc2c(c1)c1c3c[n+](CCN4CCC(CC5CCN(CC[n+]6ccc7ccc8c(c7c6)c6cc(OC)ccc6n8C)CC5)CC4)ccc3ccc1n2C.CS(=O)(=O)[O-].CS(=O)(=O)[O-]', 'Nucleic Acid', 20),
  ('COc1ccc2c(c1)c1c3c[n+](CCN4CCC(C5CCN(CC[n+]6ccc7ccc8c(c7c6)c6cc(OC)ccc6n8C)CC5)CC4)ccc3ccc1n2C.CS(=O)(=O)[O-].CS(=O)(=O)[O-]', 'Nucleic Acid', 2);

# compound `COc1ccc2[nH]c3ccc4cc[n+](CCN5CCC(CCCC6CCN(CC[n+]7ccc8ccc9[nH]c%10ccc(OC)cc%10c9c8c7)CC6)CC5)cc4c3c2c1.CS(=O)(=O)[O-].CS(=O)(=O)[O-]` ; its K app x10e-7 = 5

K app x10e-7 measured on `COc1ccc2[nH]c3ccc4cc[n+](CCN5CCC(C6CCN(CC[n+]7ccc8ccc9[nH]c%10ccc(OC)cc%10c9c8c7)CC6)CC5)cc4c3c2c1.CS(=O)(=O)[O-].CS(=O)(=O)[O-]` = 1

###

- Test system: L1210
- experimentalDetails: Optimal dose for anti-tumor activity in vivo on L1210-infected mice
- Format: functional, Mus musculus
readoutName: OD (mg/kg)
Give the value, in units of mg/kg, as a plain number.

Lab note: measured OD of `COc1ccc2[nH]c3ccc4cc[n+](CCN5CCC(CCC6CCN(CC[n+]7ccc8ccc9[nH]c%10ccc(OC)cc%10c9c8c7)CC6)CC5)cc4c3c2c1.CS(=O)(=O)[O-].CS(=O)(=O)[O-]` was 5

###

- Test system: Nucleic Acid
- experimentalDetails: Binding affinity for DNA
- Type: nucleic-acid assay
readoutName: K app x10e-7 (M⁻¹)
# output: bare number, implied unit M⁻¹

Solved entries:
INSERT INTO results (mol, readoutname, observedvalue) VALUES
  ('COc1ccc2c(c1)c1c3c[n+](CCN4CCC(CCC5CCN(CC[n+]6ccc7ccc8c(c7c6)c6cc(OC)ccc6n8C)CC5)CC4)ccc3ccc1n2C.CS(=O)(=O)[O-].CS(=O)(=O)[O-]', 'K app x10e-7', 3),
  ('COc1ccc2nc3cc(Cl)ccc3c(NCCN3CCC(C4CCN(CC[n+]5ccc6ccc7c(c6c5)c5cc(OC)ccc5n7C)CC4)CC3)c2c1.CS(=O)(=O)[O-]', 'K app x10e-7', 10),
  ('COc1ccc2c(c1)c1c3c[n+](CCCN4CCC(C5CCN(CC[n+]6ccc7ccc8c(c7c6)c6cc(OC)ccc6n8C)CC5)CC4)ccc3ccc1n2C.CS(=O)(=O)[O-].CS(=O)(=O)[O-]', 'K app x10e-7', 1),
  ('COc1ccc2nc3cc(Cl)ccc3c(NCCN3CCC(C4CCN(CC[n+]5ccc6ccc7[nH]c8ccc(OC)cc8c7c6c5)CC4)CC3)c2c1.[Cl-]', 'K app x10e-7', 5),
  ('COc1ccc2[nH]c3ccc4cc[n+](CCN5CCC(CCC6CCN(CC[n+]7ccc8ccc9[nH]c%10ccc(OC)cc%10c9c8c7)CC6)CC5)cc4c3c2c1.CS(=O)(=O)[O-].CS(=O)(=O)[O-]', 'K app x10e-7', 7),
  ('COc1ccc2[nH]c3ccc4cc[n+](CCN5CCC(CC6CCN(CC[n+]7ccc8ccc9[nH]c%10ccc(OC)cc%10c9c8c7)CC6)CC5)cc4c3c2c1.CS(=O)(=O)[O-].CS(=O)(=O)[O-]', 'K app x10e-7', 10);

Now consider the entry below.
Reported K app x10e-7 for `COc1ccc2[nH]c3ccc4cc[n+](CCCN5CCC(C6CCN(CC[n+]7ccc8ccc9[nH]c%10ccc(OC)cc%10c9c8c7)CC6)CC5)cc4c3c2c1.CS(=O)(=O)[O-].CS(=O)(=O)[O-]` was 5
